Target: human Fatty Acid Synthase (Homo sapiens, UniProt P49327)
Construct: made in house
Sequence (P49327 whole entry): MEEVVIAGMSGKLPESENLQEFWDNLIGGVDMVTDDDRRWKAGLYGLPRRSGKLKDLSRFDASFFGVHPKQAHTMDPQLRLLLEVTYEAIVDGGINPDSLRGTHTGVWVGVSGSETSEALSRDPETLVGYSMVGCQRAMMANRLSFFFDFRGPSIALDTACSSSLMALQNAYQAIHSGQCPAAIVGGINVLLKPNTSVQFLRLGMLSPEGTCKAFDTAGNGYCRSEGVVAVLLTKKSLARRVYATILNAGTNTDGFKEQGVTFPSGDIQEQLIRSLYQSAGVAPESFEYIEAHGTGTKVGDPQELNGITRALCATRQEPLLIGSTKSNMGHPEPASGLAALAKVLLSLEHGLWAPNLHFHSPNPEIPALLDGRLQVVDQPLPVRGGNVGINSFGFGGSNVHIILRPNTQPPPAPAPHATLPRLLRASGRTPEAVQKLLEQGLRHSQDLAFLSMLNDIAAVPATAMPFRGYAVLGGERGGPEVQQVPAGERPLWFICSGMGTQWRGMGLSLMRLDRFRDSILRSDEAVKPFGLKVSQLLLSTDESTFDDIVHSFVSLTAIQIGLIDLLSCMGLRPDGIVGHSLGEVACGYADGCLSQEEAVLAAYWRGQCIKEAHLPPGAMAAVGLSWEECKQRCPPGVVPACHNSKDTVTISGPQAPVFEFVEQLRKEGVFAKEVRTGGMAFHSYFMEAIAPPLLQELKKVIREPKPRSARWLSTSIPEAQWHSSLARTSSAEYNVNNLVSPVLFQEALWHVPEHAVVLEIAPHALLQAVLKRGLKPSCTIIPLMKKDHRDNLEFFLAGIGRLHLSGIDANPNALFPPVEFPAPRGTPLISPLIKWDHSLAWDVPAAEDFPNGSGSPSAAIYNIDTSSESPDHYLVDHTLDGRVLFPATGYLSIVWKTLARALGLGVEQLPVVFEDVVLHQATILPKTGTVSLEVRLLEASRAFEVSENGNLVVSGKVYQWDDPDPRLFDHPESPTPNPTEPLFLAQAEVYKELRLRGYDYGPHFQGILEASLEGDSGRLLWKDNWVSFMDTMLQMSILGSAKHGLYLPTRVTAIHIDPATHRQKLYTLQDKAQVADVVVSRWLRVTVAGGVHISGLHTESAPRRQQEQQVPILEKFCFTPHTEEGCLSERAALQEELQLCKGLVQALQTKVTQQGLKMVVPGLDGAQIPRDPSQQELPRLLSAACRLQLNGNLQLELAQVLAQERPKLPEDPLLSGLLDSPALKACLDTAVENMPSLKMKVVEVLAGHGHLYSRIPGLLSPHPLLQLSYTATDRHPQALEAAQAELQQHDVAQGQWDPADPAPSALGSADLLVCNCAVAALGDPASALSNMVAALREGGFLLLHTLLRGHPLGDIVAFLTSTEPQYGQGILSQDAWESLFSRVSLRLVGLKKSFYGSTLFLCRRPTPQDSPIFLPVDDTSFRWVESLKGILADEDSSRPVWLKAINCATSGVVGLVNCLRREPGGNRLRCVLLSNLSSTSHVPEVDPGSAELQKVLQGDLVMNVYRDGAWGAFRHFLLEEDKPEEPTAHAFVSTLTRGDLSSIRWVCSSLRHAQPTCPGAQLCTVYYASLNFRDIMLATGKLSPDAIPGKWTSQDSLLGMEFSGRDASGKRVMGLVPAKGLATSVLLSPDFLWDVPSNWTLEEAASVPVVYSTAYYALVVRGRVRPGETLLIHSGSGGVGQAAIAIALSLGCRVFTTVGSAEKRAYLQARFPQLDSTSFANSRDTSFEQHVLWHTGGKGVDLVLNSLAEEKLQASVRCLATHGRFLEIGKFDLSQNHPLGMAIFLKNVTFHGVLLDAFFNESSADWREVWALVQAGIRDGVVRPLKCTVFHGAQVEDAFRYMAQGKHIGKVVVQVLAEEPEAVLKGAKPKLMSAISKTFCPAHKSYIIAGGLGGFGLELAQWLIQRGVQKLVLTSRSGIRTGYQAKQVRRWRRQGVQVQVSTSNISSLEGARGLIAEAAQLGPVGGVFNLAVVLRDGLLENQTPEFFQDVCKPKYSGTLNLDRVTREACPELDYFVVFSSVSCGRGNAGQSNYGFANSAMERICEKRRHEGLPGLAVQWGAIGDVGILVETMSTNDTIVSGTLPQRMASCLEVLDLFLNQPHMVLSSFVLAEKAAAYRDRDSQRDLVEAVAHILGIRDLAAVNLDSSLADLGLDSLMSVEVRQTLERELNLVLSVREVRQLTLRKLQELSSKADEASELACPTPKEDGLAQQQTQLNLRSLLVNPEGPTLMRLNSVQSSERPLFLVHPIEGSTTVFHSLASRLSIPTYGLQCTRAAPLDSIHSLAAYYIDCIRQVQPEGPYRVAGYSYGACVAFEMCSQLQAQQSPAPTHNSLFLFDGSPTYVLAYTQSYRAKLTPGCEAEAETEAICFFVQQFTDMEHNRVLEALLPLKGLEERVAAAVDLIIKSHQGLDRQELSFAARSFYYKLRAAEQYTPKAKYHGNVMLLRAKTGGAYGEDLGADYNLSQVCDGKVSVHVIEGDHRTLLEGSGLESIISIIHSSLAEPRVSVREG
Test: Human FAS enzyme assay (decrease in NADPH fluorescence)
Assay type: biochemical
Settings: % inhibition at a concentration of 100 μmolar
reported-metric: inhibition at 100 µM (%)

{"columns": ["compound", "inhibition at 100 µM [%]"],
 "data": [
  ["CC(=O)NC1CN(C(=O)Nc2cc(C(=O)N3CCC(c4ccc(C#N)cc4)CC3)ccc2C)C1", 88.8],
  ["Cc1ccc(C(=O)N2CCC(c3ccc(C#N)cc3)CC2)cc1NC(=O)NCc1cc(C)n(C)n1", 86.2],
  ["Cc1ccc(NC(=O)NCc2ccccn2)cc1C(=O)N1CCC(c2ccc(C#N)cc2)CC1", 83.6],
  ["Cc1ccc(C(=O)N2CCC(c3ccc(C#N)cc3)CC2)cc1NC(=O)NCCCCNC(=O)OC(C)(C)C", 87.9],
  ["Cc1ccc(C(=O)N2CCC(c3ccc(F)cc3)CC2)cc1NC(=O)NC1CCNC1 (stereo not shown)", 88.7],
  ["Cc1ccc(C(=O)N2CCC(c3ccc(C#N)cc3)CC2)cc1NC(=O)NC(C)c1ccccn1 (stereo not shown)", 110],
  ["Cc1ccc(C(=O)N2CCC(c3ccc(C#N)cc3)CC2)cc1NC(=O)N[C@@H](CCS(C)(=O)=O)C(=O)O", 99.3],
  ["CC(=O)N(C)CCNC(=O)Nc1cc(C(=O)N2CCC(c3ccc(F)cc3)CC2)ccc1C", 75.6],
  ["CC(=O)N1CC[C@@H](NC(=O)Nc2cc(C(=O)N3CCC(c4ccc(C#N)cc4)CC3)ccc2C)C1", 106],
  ["CCCCNC(=O)Nc1ccc(C)c(C(=O)N2CCC(c3ccc(C#N)cc3)CC2)c1", 79.2],
  ["Cc1ccc(C(=O)N2CCC(c3ccc(C#N)cc3)CC2)cc1NC(=O)NCc1cc(=O)[nH]o1", 80.9],
  ["CSc1ccc(C(=O)N2CCC(c3ccc(C#N)cc3)CC2)cc1NC(=O)NCc1ccccc1", 84.7],
  ["Cc1ccc(NC(=O)NC(C)C)cc1C(=O)N1CCC(c2ccc(C#N)cc2)CC1", 76.5],
  ["Cc1ccc(C(=O)N2CCC(c3ccc(C#N)cc3)CC2)cc1NC(=O)NCCNC(=O)C(C)C", 94.3],
  ["CSc1ccc(C(=O)N2CCC(c3ccc(C#N)cc3)CC2)cc1NC(=O)NC(C)C", 87.9],
  ["CCS(=O)(=O)N1CC(NC(=O)Nc2cc(C(=O)N3CCC(c4ccc(C#N)cc4)CC3)ccc2C)C1", 105]
]}

* * *

Biological target: human Fatty Acid Synthase (Homo sapiens)
Construct: made in house
Assay: Human FAS enzyme assay (decrease in NADPH fluorescence)
Format: biochemical
Conditions: % inhibition at a concentration of 100 μmolar
reported-metric: inhibition at 100 µM (%)

{"columns": ["compound", "inhibition at 100 µM, %"],
 "data": [
  ["Cc1ccc(C(=O)N2CCC(c3ccc(C#N)cc3)CC2)cc1NC(=O)NC(C)COc1ccccc1 (racemic)", 90.9],
  ["CC(=O)NC(C)(C)CNC(=O)Nc1cc(C(=O)N2CCC(c3ccc(C#N)cc3)CC2)ccc1C", 85.9],
  ["Cc1ccc(C(=O)N2CCC(c3ccc(C#N)cc3)CC2)cc1NC(=O)NC(C)c1cccnc1 (stereo not shown)", 91.3],
  ["CCOCCCNC(=O)Nc1cc(C(=O)N2CCC(c3ccc(C#N)cc3)CC2)ccc1C", 89.1]
]}
